// data source = PubChem BioAssay (NCATS)

- assay.info: qHTS of pediatric cancer cell lines to identify multiple opportunities for drug repurposing: Primary screen for Saos-2 cells (AID 1347097); further: nearly all actives have a fitted effect of over 40% in size
- condition.notes: Saos-2 viability, CellTiter-Glo ATP luminescence, 48 h; series mostly up to 46 µM
Inconclusive results are not listed. Calls of active or inactive are those of the source. The call rests on the fitted dose curve; in most records, active means well fitted cell-killing curve with a large enough effect; inconclusive means small, poorly fitted or top-dose-only effect; inactive means no such curve, though single readings can be large or run the other way.
Outcome (select one): active, inactive

### Prompt Any idea what this test logged for CN=C(NC#N)Nc1ccc(C2=NNC(=O)CC2C)cc1 (centres undefined) ?
### Response inactive

### Prompt Any idea what this test logged for `CC1(C)OC[C@@H](COC(=O)CCc2ccc(OC[C@@H](O)CNCCNC(=O)N3CCOCC3)cc2)O1` ?
### Response inactive

### Prompt Any idea what this test logged for `OC(CCN1CCCCC1)(c1ccccc1)c1ccccc1` ?
### Response inactive

### Prompt Any idea what this test logged for CC(O)C(=O)O (centres undefined) ?
### Response inactive

### Prompt Any idea what this test logged for `O=C(CCCN1CCC(O)(c2ccc(Br)cc2)CC1)c1ccc(F)cc1` ?
### Response inactive

### Prompt Any idea what this test logged for `c1ccc(CNCCNCc2ccccc2)cc1` ?
### Response inactive

### Prompt Any idea what this test logged for `C[C@]12C=CC(=O)C=C1[C@@H](F)C[C@@H]1[C@@H]2[C@@H](O)C[C@@]2(C)[C@H]1CC[C@]2(O)C(=O)CO` ?
### Response inactive

### Prompt Any idea what this test logged for `Cc1c(C(C)C)c(=O)n(-c2ccccc2)n1C` ?
### Response inactive

### Prompt Any idea what this test logged for `COc1cc(C=C2CCC/C(=C\c3ccc(O)c(OC)c3)C2=O)ccc1O` ?
### Response active

### Prompt Any idea what this test logged for `CCCCc1nc(Cl)c(CO)n1Cc1ccc(-c2ccccc2-c2nn[nH]n2)cc1` ?
### Response inactive

### Prompt Any idea what this test logged for NC(CS)C(=O)O (centres undefined) ?
### Response inactive

### Prompt Any idea what this test logged for `CC(C)COC(=O)c1ccc(N)cc1` ?
### Response inactive

### Prompt Any idea what this test logged for O=C(CCN1CCC(c2ccccc2)C1)c1ccc2c(c1)OCCO2 (centres undefined) ?
### Response active

### Prompt Any idea what this test logged for CN1[C@@H]2CC[C@H]1CC(OC(=O)c1c[nH]c3ccccc13)C2 (some centres undefined) ?
### Response inactive

### Prompt Any idea what this test logged for `Cc1onc(-c2c(Cl)cccc2Cl)c1C(=O)N[C@@H]1C(=O)N2[C@@H]1SC(C)(C)[C@@H]2C(=O)O` ?
### Response inactive

### Prompt Any idea what this test logged for `Cc1cccc(C)c1NC(=O)CN1CCN(CCCC(c2ccc(F)cc2)c2ccc(F)cc2)CC1` ?
### Response inactive

### Prompt Any idea what this test logged for `CCOC(=O)/C=C(C)/C=C/C=C(C)/C=C/c1c(C)cc(OC)c(C)c1C` ?
### Response inactive

### Prompt Any idea what this test logged for `COc1ccc(C2C(=O)c3ccccc3C2=O)cc1` ?
### Response inactive

### Prompt Any idea what this test logged for `CC1=C(C(=O)O)N2C(=O)[C@@H](NC(=O)[C@H](N)c3ccc(O)cc3)[C@H]2SC1` ?
### Response inactive

### Prompt Any idea what this test logged for `C[C@H]1C[C@H]2[C@@H]3CCC4=CC(=O)C=C[C@]4(C)[C@@]3(Cl)[C@@H](O)C[C@]2(C)[C@@]1(O)C(=O)CO` ?
### Response inactive

### Prompt Any idea what this test logged for `CCN(CC)C(=O)N1CCN(C)CC1` ?
### Response inactive

### Prompt Any idea what this test logged for `Cc1cccn2c(=O)c(-c3nnn[nH]3)cnc12` ?
### Response inactive

### Prompt Any idea what this test logged for `CCCCCCC[N+](CC)(CC)CCCCc1ccc(Cl)cc1` ?
### Response active

### Prompt Any idea what this test logged for `NCCC(O)(P(=O)(O)O)P(=O)(O)O` ?
### Response inactive

### Prompt Any idea what this test logged for `CCOC(=O)c1cccc(N)c1` ?
### Response inactive

### Prompt Any idea what this test logged for `CC(=O)OCC(=O)[C@@]1(O)[C@H](C)C[C@H]2[C@@H]3CCC4=CC(=O)C=C[C@]4(C)[C@@]3(F)[C@@H](O)C[C@@]21C` ?
### Response inactive

### Prompt Any idea what this test logged for `C[C@H](CCC(=O)O)[C@H]1CC[C@H]2[C@@H]3C(=O)C[C@@H]4CC(=O)CC[C@]4(C)[C@H]3CC(=O)[C@]12C` ?
### Response inactive

### Prompt Any idea what this test logged for `CC(=O)Oc1ccc2c(c1)CC[C@@H]1[C@@H]2CC[C@]2(C)[C@@H](O)CC[C@@H]12` ?
### Response active

### Prompt Any idea what this test logged for `OC[C@H]1O[C@H](O[C@]2(CCl)O[C@H](CCl)[C@@H](O)[C@@H]2O)[C@H](O)[C@@H](O)[C@H]1Cl` ?
### Response inactive
